system: Staphylococcus epidermidis; assay type: cell-based
Ends that are not written are not given here.
assay endpoint: MIC (µg/mL)
Return type: number; implicit unit µg/mL.

Prompt: Report MIC for RRWWRFPPPRFPPRFPPP-NH2 [RFPP-18] please.
Response: 512

Prompt: Now give it for RRWWRFPRFFRRFFR-NH2 [RFFR-15] too.
Response: 128

Prompt: Another substance: KWKYPKLLKKLLK [KW-13]
Response: 4

Prompt: Try KWKLFKKIWGKPV-NH2 [KPV-13] next.
Response: 32

====

tested on: Escherichia coli; format: cell-based
Ends that are not written are not given here.
assay endpoint: MIC (µg/mL)
Please state the figure in µg/mL; there is no need to write the unit.

Prompt: Given the substance KWKLFKKIWGKPV-NH2 [KPV-13] , what is its reported MIC?
Response: 512

Prompt: Lookup KWKKPKLLKKLLK [KWKK-13]
Response: 256

Prompt: Do the same for RRWWRFPRFFRRFFR-NH2 [RFFR-15] please
Response: 256

Prompt: // same read-out, input: KWKYPKLLKKLLK [KW-13]
Response: 64

Prompt: Follow-up item: RRWWRFPPPRFPPRFPPP-NH2 [RFPP-18]
Response: 128

Hello, the source for this data is paper PMC4673326, in case you need it.
